These data points were gathered from patent US20200317802A1.

- STUDY SYSTEM: T1, guinea pig recombinant ADAMTS5 (guinea pig)
- T1 chain: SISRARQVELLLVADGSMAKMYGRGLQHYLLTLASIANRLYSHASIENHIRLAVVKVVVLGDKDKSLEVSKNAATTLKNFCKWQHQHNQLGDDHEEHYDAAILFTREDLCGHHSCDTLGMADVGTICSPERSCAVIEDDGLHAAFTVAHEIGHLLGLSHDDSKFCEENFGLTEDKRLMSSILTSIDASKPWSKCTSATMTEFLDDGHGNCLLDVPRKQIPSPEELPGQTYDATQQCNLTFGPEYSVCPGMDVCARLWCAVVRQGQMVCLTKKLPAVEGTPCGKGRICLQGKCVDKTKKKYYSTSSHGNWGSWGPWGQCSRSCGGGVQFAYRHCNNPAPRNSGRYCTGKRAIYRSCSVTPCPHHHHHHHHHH
- TEST: cell-based or functional assay
OUTCOME MEASURE: AlphaLISA potency IC50, Guinea pig (nM)
# value in nM; strip the unit string

Hello, please tell me recorded AlphaLISA potency IC50, Guinea pig for this one: Nanobody 2A12 (VHH, tagged as tested (anti-Flag detection, IMAC); also called 02A12) VHH: EVQLVESGGGLVQAGGSLRLSCAASGRTFSSYAMGWFRQAPGKERDFVAGISRSAGRTYYVDSVKGRFTISRDSAKNTVYLQMNRLKPEDTAVYYCAADLDPNRIFSRDEAAYWGQGTLVTVSS
0.53

Please give measured AlphaLISA potency IC50, Guinea pig of the following entry: Nanobody 11B06 (VHH, tagged as tested (anti-Flag detection, IMAC)) VHH: EVQLVESGGGLVQAGGSLRLSCAASGLTFRRNAMGWFRQAPGKERELLAGINWSGGTTYYVDSVKGRFTISRDNAKNTVDLQMISPKPEDTAVYYCAADGDIGTLVNDENPRYWGQGTLVTVSS
0.35

Answer with the recorded AlphaLISA potency IC50, Guinea pig for the binder listed here: Nanobody 2D07 (VHH, tagged as tested (anti-Flag detection, IMAC); also called 02D07; 2D7) VHH: EVQLVESGGGLVQAGGSLRLSCSFSGPGRTFARYAMGWFRQAPGKNRDFITGISGSGDSTYYVYPMKDRFTISRDNAKNMVYLQMNALKPEDTAVYYCAADREINRIANDKELDFWGQGTLVTVSS
0.36
